- System: Tetranychus urticae
- TEST_METHOD_NOTES: Acaricidal activity against Tetranychus urticae (two-spotted spider mite) in kidney bean leaf assessed as mortality at 500 ppm at 25 degC measured after 5 days
- Format: functional
- EXPERIMENTAL_PARAMETERS: 120 h
MEASURE: mortality at 500 ppm

Tell me measured mortality at 500 ppm for CCOCCOc1ccc(CNC(=O)c2c(Cl)c(CC)nn2C)cc1 please.
80%

Determine its reported mortality at 500 ppm: CCCCCCc1ccc(CNC(=O)c2c(Cl)c(CC)nn2C)cc1
100%

Assign mortality at 500 ppm to the following record: Cc1nn(C)c(C(=O)NCc2ccc(C(C)(C)C)cc2)c1OC(F)F
100%

Tell me mortality at 500 ppm reported for Cc1nn(C)c(C(=O)NCc2ccccc2C(F)(F)F)c1Cl
0%

Output measured mortality at 500 ppm for this item: Cc1cc(C(=O)NCc2ccc(C(C)(C)C)cc2)n(C)n1
100%

Give the value of mortality at 500 ppm reported for the following: Cc1nn(C(C)C)c(C(=O)NCc2ccc(C(C)(C)C)cc2)c1Cl
0%

Kindly indicate its recorded mortality at 500 ppm. Item: Cc1nn(C)c(C(=O)NCc2ccc(C(C)(C)C)cc2)c1[N+](=O)[O-]
0%

Provide only the value of recorded mortality at 500 ppm for Cc1nn(C)c(C(=O)NC(C)c2ccc(C(C)(C)C)cc2)c1Br (stereo unspecified)
100%

Give reported mortality at 500 ppm value for Cc1nn(C)c(C(=O)NCc2cccc(C(F)(F)F)c2)c1Cl
0%

Report mortality at 500 ppm, nothing else, for this compound: CCc1nn(C)c(C(=O)NCc2ccc(N)cc2)c1Cl
0%

Name the recorded mortality at 500 ppm of the item CCOc1c(C)nn(C)c1C(=O)NCc1ccc(C(C)(C)C)cc1 in your answer.
100%
